Parameter % Blocking: see the listing below.
biological target: T1, human CCR8 (human, UniProt P51685 1-355); assay: flow blocking, PBMC CCR8+CD4+; competitor PE-AB10
T1 construct: Native CCR8 on human PBMC (CCR8+ CD3+ or CCR8+ CD4+ lymphocytes); also called chemokine (C-C motif) receptor 8
T1 sequence (P51685 whole entry): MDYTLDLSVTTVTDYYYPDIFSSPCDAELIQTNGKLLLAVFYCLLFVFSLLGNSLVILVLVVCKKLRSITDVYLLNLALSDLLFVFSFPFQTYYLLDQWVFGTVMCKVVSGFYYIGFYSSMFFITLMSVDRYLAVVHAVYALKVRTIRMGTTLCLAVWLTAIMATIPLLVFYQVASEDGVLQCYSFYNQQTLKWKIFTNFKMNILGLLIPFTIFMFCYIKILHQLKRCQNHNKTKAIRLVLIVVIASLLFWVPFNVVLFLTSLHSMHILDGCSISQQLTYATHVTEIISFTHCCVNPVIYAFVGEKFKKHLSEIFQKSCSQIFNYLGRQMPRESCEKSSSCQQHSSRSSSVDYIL
Number only, in %; omit the unit.

Guide cases for % Blocking, answers given:
AB3 (antibody, V domains shown, Hybridoma monoclonal; also called antibody 3; clone 3) VH: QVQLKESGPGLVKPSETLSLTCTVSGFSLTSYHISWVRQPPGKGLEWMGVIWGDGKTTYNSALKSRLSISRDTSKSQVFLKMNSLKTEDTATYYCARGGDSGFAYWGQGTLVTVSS VL: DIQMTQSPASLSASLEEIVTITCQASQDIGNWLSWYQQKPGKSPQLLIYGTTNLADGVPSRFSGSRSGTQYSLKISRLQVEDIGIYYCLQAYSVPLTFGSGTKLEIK :: -9.46
AB14 (antibody, V domains shown, Hybridoma monoclonal; Same VH/VL entries as AB15; also called antibody 14; clone 14) VH: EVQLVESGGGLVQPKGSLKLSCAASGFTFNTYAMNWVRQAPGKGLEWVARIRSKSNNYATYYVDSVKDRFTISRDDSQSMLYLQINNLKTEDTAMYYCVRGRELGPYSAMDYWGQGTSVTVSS VL: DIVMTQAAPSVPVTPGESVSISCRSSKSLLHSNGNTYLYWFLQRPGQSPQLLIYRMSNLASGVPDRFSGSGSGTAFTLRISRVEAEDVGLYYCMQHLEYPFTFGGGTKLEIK :: 96
AB11 (antibody, V domains shown, Hybridoma monoclonal; also called antibody 11; clone 11) VH: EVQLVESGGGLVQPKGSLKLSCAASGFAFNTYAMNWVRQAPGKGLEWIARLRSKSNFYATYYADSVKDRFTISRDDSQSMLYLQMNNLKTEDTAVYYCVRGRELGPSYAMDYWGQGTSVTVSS VL: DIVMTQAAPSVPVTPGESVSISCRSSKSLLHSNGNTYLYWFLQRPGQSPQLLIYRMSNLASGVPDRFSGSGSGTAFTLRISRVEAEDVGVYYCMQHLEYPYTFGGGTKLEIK :: -2.7
AB10 (antibody, V domains shown, Hybridoma monoclonal; also called antibody 10; clone 10) VH: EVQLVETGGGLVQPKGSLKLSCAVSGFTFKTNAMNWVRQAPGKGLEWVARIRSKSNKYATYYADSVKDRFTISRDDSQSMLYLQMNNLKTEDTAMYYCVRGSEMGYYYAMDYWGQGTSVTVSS VL: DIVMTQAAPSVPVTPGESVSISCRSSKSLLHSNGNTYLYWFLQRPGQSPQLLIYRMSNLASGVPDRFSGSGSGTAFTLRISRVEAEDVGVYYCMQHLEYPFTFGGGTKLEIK :: 93.2

Per the records, this binder ( AB15 (antibody, V domains shown, Hybridoma monoclonal; Same VH/VL entries as AB14; also called antibody 15; clone 15) VH: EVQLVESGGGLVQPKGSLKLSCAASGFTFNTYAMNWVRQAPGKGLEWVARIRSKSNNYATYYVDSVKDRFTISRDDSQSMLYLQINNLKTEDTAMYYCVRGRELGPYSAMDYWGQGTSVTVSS VL: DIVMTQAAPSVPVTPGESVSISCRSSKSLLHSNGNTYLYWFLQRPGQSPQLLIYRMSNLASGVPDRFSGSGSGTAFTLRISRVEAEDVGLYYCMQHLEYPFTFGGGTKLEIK ) has % Blocking equal to 93.2

Per the records, this binder ( AB13 (antibody, V domains shown, Hybridoma monoclonal; also called antibody 13; clone 13) VH: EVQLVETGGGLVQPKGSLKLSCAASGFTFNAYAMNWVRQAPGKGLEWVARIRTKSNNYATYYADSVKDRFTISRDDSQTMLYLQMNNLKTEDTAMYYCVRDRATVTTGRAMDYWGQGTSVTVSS VL: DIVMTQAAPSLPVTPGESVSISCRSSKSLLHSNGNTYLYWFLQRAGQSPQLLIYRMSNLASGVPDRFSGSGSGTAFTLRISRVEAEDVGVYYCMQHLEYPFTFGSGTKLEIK ) has % Blocking equal to 96

Per the records, this binder ( AB12 (antibody, V domains shown, Hybridoma monoclonal; also called antibody 12; clone 12) VH: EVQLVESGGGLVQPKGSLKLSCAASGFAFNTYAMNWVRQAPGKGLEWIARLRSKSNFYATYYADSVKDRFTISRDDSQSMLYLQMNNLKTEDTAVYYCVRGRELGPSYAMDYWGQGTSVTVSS VL: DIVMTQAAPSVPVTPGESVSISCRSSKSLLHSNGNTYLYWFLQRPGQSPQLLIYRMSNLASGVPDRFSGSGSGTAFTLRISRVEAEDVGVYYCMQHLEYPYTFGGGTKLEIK ) has % Blocking equal to 87.8
